- target_under_test: cPLA2 (Homo sapiens, UniProt P47712)
- experiment: Coumarine assay (7-hydroxycoumarinyl 6-heptenoate hydrolysis)
- Format: biochemical
- measurement_conditions: 60 μM 7-hydroxycoumarinyl 6-heptenoate; read-out: IC50 (μM) Coumarine
measure_name: IC50

The cases that follow already have their IC50 on record.
COc1ccc(C(=O)O)cc1NC(=O)CSCC1Cc2cc(OCc3ccccc3)ccc2N1C(=O)COc1ccc(Cc2ccccc2)cc1 (stereo not drawn) | > 30 µM
O=C(O)c1ccccc1SCC1Cc2cc(OCc3ccccc3)ccc2N1Cc1ccc2ccccc2c1 (stereo not drawn) | 4.5 µM

Now look at this one.
Query: Fill in the blank: the reported IC50 of COc1ccc(COc2ccc3c(c2)CC(CNC(=O)Nc2cc(C(=O)O)cc(C(=O)O)c2)N3Cc2ccc(C(F)(F)F)cc2C(F)(F)F)cc1 (stereo not drawn) is ____.
Result: 17 µM

----------
- target_under_test: UniProt:P47712
- Sequence (P47712 1-749): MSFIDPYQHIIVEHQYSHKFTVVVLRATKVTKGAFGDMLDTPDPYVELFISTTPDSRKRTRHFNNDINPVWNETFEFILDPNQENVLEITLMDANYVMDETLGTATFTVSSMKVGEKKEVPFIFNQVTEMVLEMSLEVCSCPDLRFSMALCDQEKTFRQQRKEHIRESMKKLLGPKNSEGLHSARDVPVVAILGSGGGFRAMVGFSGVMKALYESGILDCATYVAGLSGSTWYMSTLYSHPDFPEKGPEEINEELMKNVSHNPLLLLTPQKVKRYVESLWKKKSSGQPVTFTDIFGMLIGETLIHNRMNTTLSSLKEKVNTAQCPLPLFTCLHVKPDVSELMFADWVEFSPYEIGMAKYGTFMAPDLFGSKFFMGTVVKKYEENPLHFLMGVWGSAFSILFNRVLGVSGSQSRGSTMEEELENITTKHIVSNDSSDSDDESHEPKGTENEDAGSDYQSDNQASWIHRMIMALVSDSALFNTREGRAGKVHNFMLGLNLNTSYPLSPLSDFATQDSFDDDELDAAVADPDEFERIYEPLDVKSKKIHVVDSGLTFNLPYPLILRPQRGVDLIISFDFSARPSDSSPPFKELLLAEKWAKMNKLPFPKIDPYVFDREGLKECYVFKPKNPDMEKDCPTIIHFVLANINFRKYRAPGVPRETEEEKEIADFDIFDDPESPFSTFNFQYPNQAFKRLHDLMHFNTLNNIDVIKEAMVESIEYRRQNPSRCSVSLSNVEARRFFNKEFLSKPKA
- experiment: Activity assay of Example 136 (Table VIII; sub-assay not stated)
- Type: biochemical
- measurement_conditions: concentration paired with 50 percent inhibition; read-out: CONCENTRATION (micromolar) @ PERCENT INHIBITION 50
- From the text: Activity data for the compounds of Examples 88-135 are reported in Table VIII (assay described in Example 136). […] 7-hydroxycoumarinyl 6-heptenoate was used as a monomeric substrate for cPLA2 as reported previously (Huang, Z. et al., 1994, Analytical Biochemistry 222, 110-115). […] Hydrolysis of the 7-hydroxycoumarinyl 6-heptenoate ester was monitored in a fluorometer by exciting at 360 nm and monitoring emission at 460 nm. […]
Known log10 IC50 of a selection of compounds
The base-10 logarithm of IC50, taken with IC50 in µM, is what appears here.

Take a look at these entries with their results.
O=C1NC(=S)S/C1=C/c1cc2cc(OCc3ccccc3)ccc2n1Cc1ccc(C(F)(F)F)cc1C(F)(F)F [Example 101] | 1.00
O=C(O)CN1C(=O)S/C(=C/c2cc3cc(OCc4ccccc4)ccc3n2Cc2ccc(COc3cc(C(F)(F)F)cc(C(F)(F)F)c3)cc2)C1=O [Example 96] | 0.70
O=C1NC(=O)/C(=C\c2cc3cc(OCc4ccccc4)ccc3n2Cc2ccc(Cc3ccccc3)cc2)S1 [Example 93] | 1.10
O=C(O)c1cc2cc(-c3ccccc3)ccc2n1Cc1ccccc1 [Example 113] | 2.23

Query: Any idea what log10 IC50 was measured for O=C(O)c1ccc(CN2C(=O)S/C(=C/c3cc4cc(OCc5ccccc5)ccc4n3Cc3ccc(Cl)cc3)C2=O)cc1 [Example 97] ?
Result: 0.65

Query: Name the reported log10 IC50 value associated with the compound O=C(O)c1cc2cc(-c3cc4ccccc4o3)ccc2n1Cc1ccccc1 [Example 110]
Result: 1.70

Query: If you can, please state the reported log10 IC50 value of O=C(O)/C=C/c1cc2cc(OCc3ccccc3)ccc2n1Cc1ccc(C(F)(F)F)cc1C(F)(F)F [Example 125] .
Result: 1.36
